- tgt: UniProt:P78536
- Sequence (P78536 whole entry, looked up, change not shown): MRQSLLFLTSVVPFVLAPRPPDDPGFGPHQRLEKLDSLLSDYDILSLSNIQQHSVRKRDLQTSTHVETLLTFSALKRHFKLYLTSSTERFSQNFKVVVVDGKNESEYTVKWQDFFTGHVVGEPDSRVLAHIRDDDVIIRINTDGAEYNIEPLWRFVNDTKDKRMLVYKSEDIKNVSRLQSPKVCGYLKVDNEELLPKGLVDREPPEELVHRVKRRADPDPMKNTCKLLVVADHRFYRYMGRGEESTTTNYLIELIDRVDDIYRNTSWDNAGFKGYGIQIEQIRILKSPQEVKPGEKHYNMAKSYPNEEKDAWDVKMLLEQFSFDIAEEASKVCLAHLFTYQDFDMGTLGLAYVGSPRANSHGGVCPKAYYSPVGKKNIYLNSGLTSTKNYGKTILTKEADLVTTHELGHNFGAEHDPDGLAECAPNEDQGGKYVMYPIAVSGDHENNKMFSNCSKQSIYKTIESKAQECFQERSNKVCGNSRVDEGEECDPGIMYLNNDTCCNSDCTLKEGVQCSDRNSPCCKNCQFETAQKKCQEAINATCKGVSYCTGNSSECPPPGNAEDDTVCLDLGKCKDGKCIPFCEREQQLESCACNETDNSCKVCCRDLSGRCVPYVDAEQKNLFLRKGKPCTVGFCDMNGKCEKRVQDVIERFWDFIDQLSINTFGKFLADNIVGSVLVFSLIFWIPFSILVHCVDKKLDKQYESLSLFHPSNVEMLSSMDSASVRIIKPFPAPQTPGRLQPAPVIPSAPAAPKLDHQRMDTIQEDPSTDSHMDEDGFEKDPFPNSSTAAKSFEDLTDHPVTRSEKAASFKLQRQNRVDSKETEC
- protocol conditions: read-out: TACE potency IC50

{"molecule": "COCC1(CC(C)C(=O)N2CCN(c3cc(F)ccc3C)CC2)NC(=O)NC1=O (stereo not shown)", "relation": "=", "IC50 [nM]": 207}
{"molecule": "COc1ccc(Cl)cc1C1(CCC(=O)N2CCN(c3cccc(Cl)c3)CC2)NC(=O)NC1=O (stereo not shown)", "relation": "=", "IC50 [nM]": 348}
{"molecule": "Cc1cc(C2(CCC(=O)N3CCN(c4cc(F)cc(F)c4)[C@@H](C)C3)NC(=O)NC2=O)ccn1 (stereo partly shown)", "relation": ">", "IC50 [nM]": 4000}
{"molecule": "C[C@H]1CN(C(=O)CCC2(C)NC(=O)NC2=O)CCN1c1ccc(F)c(Cl)c1 (stereo partly shown)", "relation": ">", "IC50 [nM]": 20000}

###

- tgt: human ADAMTS-5 (Homo sapiens (Human), UniProt Q9UNA0)
- Sequence (Q9UNA0 262-930): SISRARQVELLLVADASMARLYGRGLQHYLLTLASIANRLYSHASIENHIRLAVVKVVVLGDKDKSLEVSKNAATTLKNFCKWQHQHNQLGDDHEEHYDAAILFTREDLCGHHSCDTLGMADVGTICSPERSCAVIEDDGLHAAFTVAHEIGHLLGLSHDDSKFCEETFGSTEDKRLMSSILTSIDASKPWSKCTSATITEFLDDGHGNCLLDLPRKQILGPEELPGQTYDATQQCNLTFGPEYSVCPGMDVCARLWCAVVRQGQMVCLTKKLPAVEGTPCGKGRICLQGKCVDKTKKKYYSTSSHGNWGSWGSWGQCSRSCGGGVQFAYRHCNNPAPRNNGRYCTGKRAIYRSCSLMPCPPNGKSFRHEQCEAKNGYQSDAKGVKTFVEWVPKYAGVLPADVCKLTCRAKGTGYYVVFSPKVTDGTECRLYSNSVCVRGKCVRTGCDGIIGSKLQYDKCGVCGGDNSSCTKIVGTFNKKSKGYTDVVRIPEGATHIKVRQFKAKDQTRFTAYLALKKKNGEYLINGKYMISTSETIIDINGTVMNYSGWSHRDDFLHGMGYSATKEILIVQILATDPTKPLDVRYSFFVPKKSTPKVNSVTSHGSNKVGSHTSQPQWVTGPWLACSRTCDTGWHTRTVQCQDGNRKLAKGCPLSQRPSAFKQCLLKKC
- protocol conditions: read-out: hADAMTS-5 potency IC50

{"compound": "C[C@H]1CN(C(=O)CCC2(C)NC(=O)NC2=O)CCN1c1ccc(Cl)c(Cl)c1 (stereo partly shown) [compound 168]", "IC50": "76 nM"}
{"compound": "C[C@H]1CN(C(=O)CCC2(C3CC3)NC(=O)NC2=O)CCN1c1cccc2c1ccn2C (stereo partly shown) [compound 328]", "IC50": "> 4000 nM"}
{"compound": "Cc1cc(N2CCN(C(=O)CCC3(CC(=O)NCCO)NC(=O)NC3=O)CC2)ccc1Cl (stereo not shown) [Cpd 402]", "IC50": "732 nM"}
{"compound": "COC(=O)CC1(CCC(=O)N2CCN(c3cc(Cl)cc(Cl)c3)CC2)NC(=O)NC1=O (stereo not shown) [Cpd 182]", "IC50": "104 nM"}

###

Below are pIC50 values recorded for rnADAMTS-5 (1-564-6H) (Rattus norvegicus).
pIC50: −log10 of the molar value.

{"compound": "O=C1NC(=O)C(CCC(=O)N2CCN(c3cccc(Cl)c3)CC2)(C2CCCCC2)N1 (centres unmarked)", "tgt": "rnADAMTS-5 (1-564-6H) (Rattus norvegicus)", "relation": "=", "pIC50": 6.55}
{"compound": "N#Cc1cccc(N2CCN(C(=O)CCC3(C4CC4)NC(=O)NC3=O)CC2)c1 (centres unmarked)", "tgt": "rnADAMTS-5 (1-564-6H) (Rattus norvegicus)", "relation": "=", "pIC50": 6.58}
{"compound": "O=C1NC(=O)C(CCC(=O)N2CCN(c3ccc(F)c(Cl)c3)CC2)(c2cccnc2)N1 (centres unmarked)", "tgt": "rnADAMTS-5 (1-564-6H) (Rattus norvegicus)", "relation": "=", "pIC50": 7.16}
{"compound": "Cc1cc(Cl)ccc1N1CCN(C(=O)CCC2(C)NC(=O)NC2=O)CC1 (centres unmarked)", "tgt": "rnADAMTS-5 (1-564-6H) (Rattus norvegicus)", "relation": "<", "pIC50": 5.40}
{"compound": "O=C1NC(=O)C(CCC(=O)N2CCN(c3cccc(Cl)c3)CC2)(CNCc2ccccc2)N1 (centres unmarked)", "tgt": "rnADAMTS-5 (1-564-6H) (Rattus norvegicus)", "relation": "=", "pIC50": 6.55}
{"compound": "O=C1NC(=O)C(CCC(=O)N2CCN(c3cccc(F)c3)CC2)(c2cccnc2)N1 (centres unmarked)", "tgt": "rnADAMTS-5 (1-564-6H) (Rattus norvegicus)", "relation": "=", "pIC50": 7.41}
{"compound": "CC1(CCC(=O)N2CCN(c3ccc(F)cc3)CC2)NC(=O)NC1=O (centres unmarked)", "tgt": "rnADAMTS-5 (1-564-6H) (Rattus norvegicus)", "relation": "=", "pIC50": 5.86}
{"compound": "C[C@H]1CN(C(=O)CCC2(c3ccccc3)NC(=O)NC2=O)CCN1c1ccccc1 (some centres unmarked)", "tgt": "rnADAMTS-5 (1-564-6H) (Rattus norvegicus)", "relation": "=", "pIC50": 6.60}
